# Measured On: T1, ADI-76360
# T1 construct: anti-CD3 antibody made in CHO cells, captured by anti-human Fc
# Assay Text: SPR Carterra avidity, yeast anti-ID
# Protocol: Kinetic analysis was conducted at 25° C. in an HBSTE running buffer system (Carterra Cat #3630) using a Carterra LSA (Carterra USA, Salt Lake City, UT). The sample compartment was maintained at 20° C. for the duration of each experiment. For antibody capture experiments, a goat anti-human Fc antibody (Jackson ImmunoResearch) was covalently coupled to an HC30M sensor chip surface via standard amine coupling (1:1 EDC:NHS) and then blocked with ethanolamine (1.0 M, pH 8.5). […]
Reported Metric: pKd
API: returns pKd as number; meaning -log10 of concentration in mol/L.

Study these solved cases before continuing.
{"Binder": "ADI-34137 (antibody, V domains shown, anti-ID IgG) VH: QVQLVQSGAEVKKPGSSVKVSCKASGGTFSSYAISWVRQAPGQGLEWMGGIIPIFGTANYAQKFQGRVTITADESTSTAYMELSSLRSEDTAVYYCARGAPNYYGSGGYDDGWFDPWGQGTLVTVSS VL: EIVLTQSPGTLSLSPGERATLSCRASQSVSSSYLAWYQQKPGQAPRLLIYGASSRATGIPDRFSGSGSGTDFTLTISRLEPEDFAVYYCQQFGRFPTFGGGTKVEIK", "pKd": 10.09}
{"Binder": "ADI-30242 (antibody, V domains shown, anti-ID IgG) VH: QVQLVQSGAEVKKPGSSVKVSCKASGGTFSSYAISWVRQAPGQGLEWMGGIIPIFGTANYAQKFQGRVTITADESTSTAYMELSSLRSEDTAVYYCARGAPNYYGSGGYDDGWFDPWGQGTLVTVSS VL: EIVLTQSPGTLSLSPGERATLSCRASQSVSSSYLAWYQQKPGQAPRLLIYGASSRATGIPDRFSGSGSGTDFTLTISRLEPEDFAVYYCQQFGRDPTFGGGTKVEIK", "pKd": 7.96}

Please look up its pKd: ADI-34135 (antibody, V domains shown, anti-ID IgG) VH: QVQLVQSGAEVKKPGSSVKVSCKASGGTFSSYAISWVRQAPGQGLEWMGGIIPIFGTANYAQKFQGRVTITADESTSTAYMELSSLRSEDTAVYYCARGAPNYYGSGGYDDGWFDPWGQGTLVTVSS VL: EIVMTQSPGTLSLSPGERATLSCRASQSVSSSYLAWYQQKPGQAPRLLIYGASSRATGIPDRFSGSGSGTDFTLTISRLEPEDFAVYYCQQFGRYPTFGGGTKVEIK
9.82

// provenance: patent US20250019439A1
